Test system: SK-MES-1
test method notes: relative viability (nuclei count vs DMSO), 5 days (fraction); higher = more cells survive
setup conditions: first compound 0.03162 µM
measured attribute: relative viability

May I ask what relative viability has been recorded for Cc1cn(-c2cc(NC(=O)c3ccc(C)c(Nc4nccc(-c5cccnc5)n4)c3)cc(C(F)(F)F)c2)cn1 [Nilotinib] + COc1cc2c(Oc3ccc(NC(=O)C4(C(=O)Nc5ccc(F)cc5)CC4)cc3F)ccnc2cc1OCCCN1CCOCC1 [Foretinib] (partner 0.25 µM) ?
0.904

Now examine the next entry.
Entry Cc1cn(-c2cc(NC(=O)c3ccc(C)c(Nc4nccc(-c5cccnc5)n4)c3)cc(C(F)(F)F)c2)cn1 [Nilotinib] + CCNC(=O)c1noc(-c2cc(C(C)C)c(O)cc2O)c1-c1ccc(CN2CCOCC2)cc1 [Luminespib] (partner 0.01 µM) has what relative viability?
0.672

* * *

Tested on: NCI-H2009
test method notes: relative viability (nuclei count vs DMSO), 5 days (fraction); higher = more cells survive
setup conditions: first compound 0.002 µM
measured attribute: relative viability
Just the number, please, no unit attached.

Worked examples, 6 compounds total:
Requested read-out: relative viability. Entry: CCNC(=O)c1noc(-c2cc(C(C)C)c(O)cc2O)c1-c1ccc(CN2CCOCC2)cc1 [Luminespib] + CC(=O)Nc1cccc(-n2c(=O)n(C3CC3)c(=O)c3c(Nc4ccc(I)cc4F)n(C)c(=O)c(C)c32)c1 [Trametinib] (partner 0.02 µM)
0.271

Again, but for CCNC(=O)c1noc(-c2cc(C(C)C)c(O)cc2O)c1-c1ccc(CN2CCOCC2)cc1 [Luminespib] + C[C@@H](Oc1cc(-c2cnn(C3CCNCC3)c2)cnc1N)c1c(Cl)ccc(F)c1Cl [Crizotinib] (partner 1 µM)
1.14

Next compound: CCNC(=O)c1noc(-c2cc(C(C)C)c(O)cc2O)c1-c1ccc(CN2CCOCC2)cc1 [Luminespib] + Nc1nc2[nH]cc(CCc3ccc(C(=O)N[C@@H](CCC(=O)O)C(=O)O)cc3)c2c(=O)[nH]1 [Pemetrexed] (partner 0.2 µM)
1.16

Please do the same for CCNC(=O)c1noc(-c2cc(C(C)C)c(O)cc2O)c1-c1ccc(CN2CCOCC2)cc1 [Luminespib] + Nc1ncn([C@H]2C[C@H](O)[C@@H](CO)O2)c(=O)n1 [Decitabine] (partner 2 µM) as well.
0.405

And what about the compound CCNC(=O)c1noc(-c2cc(C(C)C)c(O)cc2O)c1-c1ccc(CN2CCOCC2)cc1 [Luminespib] + Cc1nc(NC(=O)N2CCC[C@H]2C(N)=O)sc1-c1ccnc(C(C)(C)C(F)(F)F)c1 [Alpelisib] (partner 2 µM) ?
1.29

Try the compound CCNC(=O)c1noc(-c2cc(C(C)C)c(O)cc2O)c1-c1ccc(CN2CCOCC2)cc1 [Luminespib] + Cc1cc(Nc2cc(N3CCN(C)CC3)nc(Sc3ccc(NC(=O)C4CC4)cc3)n2)n[nH]1 [Tozasertib] (partner 0.1 µM)
0.766

Continuing:
Request the reported relative viability associated with CCNC(=O)c1noc(-c2cc(C(C)C)c(O)cc2O)c1-c1ccc(CN2CCOCC2)cc1 [Luminespib] + COc1cccc2cc(-c3nc([C@H]4CC[C@H](C(=O)O)CC4)n4ncnc(N)c34)[nH]c12 [OSI-027] (partner 0.5 µM)
0.773

All figures here come from the supplement of paper PMC10307832.
